Data origin: ChEMBL document CHEMBL3124787

# reported log10 of MIC99; entries follow
System: Staphylococcus aureus
Assay: Antibacterial activity against methicillin-resistant Staphylococcus aureus ATCC 43300 assessed as growth inhibition after 18 hrs by broth microdilution method
Assay type: functional
Conditions: ATCC 43300, 18 h
// stored as log10 of MIC99 expressed in µg/mL

Some solved entries appear below for comparison.
Recall and state the measured log10 of MIC99 for "CC(=O)NC[C@H]1CN(c2ccc(OC[C@@H]3CN(c4ccccc4)C(=O)O3)c(F)c2)C(=O)O1" .
1.20

Consider the compound "CC(=O)NC[C@H]1CN(c2ccc(OC[C@H](O)CNc3cccnc3)c(F)c2)C(=O)O1" . State its measured log10 of MIC99.
1.51

Look up log10 of MIC99 of "CC(=O)NC[C@H]1CN(c2ccc(OC[C@@H](O)CNc3cc(C(F)(F)F)cc(C(F)(F)F)c3)c(F)c2)C(=O)O1" and report it.
1.20

Answer with reported log10 of MIC99 of "COc1ccc(NC[C@H](O)COc2ccc(N3C[C@H](CNC(C)=O)OC3=O)cc2F)cc1"
0.90

Continuing:
Name the recorded log10 of MIC99 of the compound listed here: "CC(=O)NC[C@H]1CN(c2ccc(OC[C@@H](O)CNc3ccc(C#N)cc3)c(F)c2)C(=O)O1"
0.90

Supply reported log10 of MIC99 belonging to this compound: "CC(=O)NC[C@H]1CN(c2ccc(OC[C@H](O)CNc3ccc(C#N)cc3)c(F)c2)C(=O)O1"
1.20

Please give the documented log10 of MIC99 of "CC(=O)NC[C@H]1CN(c2ccc(OC[C@H]3CN(c4ccccc4)C(=O)O3)c(F)c2)C(=O)O1"
0.90

Fill in log10 of MIC99 for record "COc1ccc(N2C[C@@H](COc3ccc(N4C[C@H](CNC(C)=O)OC4=O)cc3F)OC2=O)cc1"
1.20

Given the compound "CC(=O)NC[C@H]1CN(c2ccc(OC[C@@H](O)CNc3ccccc3)c(F)c2)C(=O)O1" , write its reported log10 of MIC99.
0.60

Give a short answer stating reported log10 of MIC99 for "COc1ccc(NC[C@@H](O)COc2ccc(N3C[C@H](CNC(C)=O)OC3=O)cc2F)cc1" .
1.20

Please give measured log10 of MIC99 of the following entry: "COc1ccc(N2C[C@H](COc3ccc(N4C[C@H](CNC(C)=O)OC4=O)cc3F)OC2=O)cc1"
0.60

Supply recorded log10 of MIC99 for "CC(=O)NC[C@H]1CN(c2ccc(OC[C@H](O)CNc3ccccc3)c(F)c2)C(=O)O1" here.
0.90

Using the record for CC(=O)NC[C@H]1CN(c2ccc(N3CCOCC3)c(F)c2)C(=O)O1 [LINEZOLID] , state its measured log10 of MIC99.
0.30

---

Quick reference for logP among some molecules
Test: Lipophilicity, log P of the compound by HPLC analysis
Type: physicochemical
Quick one: just the number, no unit, thanks!

Below: 10 molecules and their reported logP.
Give me measured logP, please, for this molecule: "O=C1O[C@H](COc2ccccc2F)CN1c1ccccc1"
3.19

Answer with the recorded logP for the molecule listed here: "CC(=O)NC[C@H]1CN(c2ccc(OC[C@@H](O)CNc3ccccc3)c(F)c2)C(=O)O1"
1.42

Using the record for "CC(=O)NC[C@H]1CN(c2ccc(OC[C@@H](O)CNc3ccccn3)c(F)c2)C(=O)O1" , state its measured logP.
1.37

Identify measured logP corresponding to "CC(=O)NC[C@H]1CN(c2ccc(OC[C@@H](O)CNc3cccnc3)c(F)c2)C(=O)O1"
0.02

Read the entry "COc1ccc(NC[C@@H](O)COc2ccc(N3C[C@H](CNC(C)=O)OC3=O)cc2F)cc1" and write its reported logP.
1.15

Input "CC(=O)NC[C@H]1CN(c2ccc(OC[C@H](O)CNc3ccccn3)c(F)c2)C(=O)O1" , output reported logP.
1.6

Give the value of logP reported for the following: "COc1ccc(NC[C@H](O)COc2ccc(N3C[C@H](CNC(C)=O)OC3=O)cc2F)cc1"
0.95

Supply logP value. Item: "CC(=O)NC[C@H]1CN(c2ccc(OC[C@@H](O)CNC3CC3)c(F)c2)C(=O)O1"
0.02

Name the recorded logP of the molecule listed here: "CC(=O)NC[C@H]1CN(c2ccc(OC[C@H](O)CNc3cccnc3)c(F)c2)C(=O)O1"
-0.18

Report measured logP; entry is "CC(=O)NC[C@H]1CN(c2ccc(OC[C@H](O)CNC3CC3)c(F)c2)C(=O)O1"
-0.1

***
Name the recorded logP of the molecule listed here: "CC(=O)NC[C@H]1CN(c2ccc(OC[C@H](O)CNCCC(C)C)c(F)c2)C(=O)O1"
1.19

Could you please provide reported logP for "CC(=O)NC[C@H]1CN(c2ccc(NC[C@H](O)COc3ccc(N4C[C@H](CNC(C)=O)OC4=O)cc3F)c(F)c2)C(=O)O1" ? Thanks!
0.59
